Assay remarks: yeast display, Sf9 membrane polyspecificity reagent, FACS + sequencing; frameworks hold sequencing errors
Reported property: polyreactivity (PSR sort gate)

Please review the entries below; each comes with its answer.
QVQLVESGGGLVHAGGSLRLSCAASGFIFPYYAMGWYRQAPGKERELVAAITSGGSTNYADSVKGRFTISRDNAKNTVYLQMNSLKPEDTAVYYCAKRLKRWSVYGRYDYWGQGTQVTVSS: high polyreactivity
QVQLVESGGGLVQAGGSLRLSCAASGSTFGANAMGWYRQAPGKEREFVAAISRSGVRTYYADSVKGRFTISRDNAKNTVYVQMNSLKPEDSAVYYCAADGYWLTYTRYDYWGQGTQVTVSS: low polyreactivity
QVQLVESGGGLVQAGGSLRLSCAASGRIFQRYMGWYRQAPGKERELVAAISRRGGSTYYADSVKARFTISRDNAKNTVYLQMNSLKPEDTAVYYWNAVNVLAPSRGRRYDYWGQGTQVTVSS: high polyreactivity
QVQLVESGGGLVQAGGSLRLSCAASGSTFFTYTMGWYRQAPGKERELVATITTSGGSTYYADSVKGRFTISRDNAKNTVYLQMNSLKPEDTAVYYCAADWDPGYYVQYGYDYWGQGTQVTVSS: low polyreactivity
QVQLVESGGGLVQAGGSLRLSCAASGSIFIPYAMGWYRQAPGKERELVAAISGSGTSTNYADSVKGRFTISRDNAKNTVYLQMNSLKPEDTAVYYCAARLPYGYLRSKFYYWGQGTQVTVSS: high polyreactivity
QVQLVESGGGLVQAGGSLRLSCAASGRIFARYAMGWYRQAPWKERELVADITTGGSTDYADSVKGRFTISRDNAKNTVYLQMNSLKPEDTAVYYCAKDHHPPGKGQSVSLGYDYWGQGTQVTVSS: low polyreactivity

Req: Any idea what polyreactivity (PSR sort gate) was measured for QVQLVESGGGLVQAGGSLRLSCPASGITVTAYAMGWYRQAPGKERELVATINSTGITNYADSVKGRFTISRDNAKNTVYLQMNSLKPEDTAVYYCAADLMDSSSYDGMDYWGQGTQVTVSS ?
Resp: low polyreactivity

Req: # query: polyreactivity (PSR sort gate) of entry QVQLVESGGGLVQAGGSLRLSCAASGSTFQYYAMGWYREAPGKERELVAAITHSGTRTYYADSVKGRYTISRDNAKNTVYLQMNTLKPEDTAGYYCAARGYGKYDYWGQGTQVTVSS
Resp: high polyreactivity

----------
Assay remarks: yeast display, Sf9 membrane polyspecificity reagent, FACS + sequencing; frameworks hold sequencing errors
Reported property: polyreactivity (PSR sort gate)

Here is how some sequences turned out for polyreactivity (PSR sort gate).
QVQLVESGGGLVQAGGSLRLSCAASGYIFGQYAMGWYRQAPGKERELVAAIRRSGGRTYYADSVKGRFTISRDNAKNTVYLQMNSLKPEDTAVYYCNKGPPQTSWRTTLFDYWGQGTQVTVSS: high polyreactivity
QVQLVESGGGLVQAGGSLRLSCAASGRIFKTYTMGWYRQAPGKERELVAVITSGGGTYYADSVKGRFTISRDNAKNTVYLQMNSLKPEDTAVYYCAARGLESPYGYWGQGTQVTVSS: low polyreactivity
QVQLVESGGGLVQAGGSLRLSCAASGRTFARYGMGWYRQAPGKERELVATINWRSAGSTYYADSVKGRFTISRDNAKNTVYLLMNSLKPEDTAVYYCNVDSGRSYRVARYDYWGQGTQVTVSS: low polyreactivity
QVQLVESGGGLVQAGGSLRLSCAASGYIFERTAMGWYRQAHGKERELVAAITDDGDDTYYADSVKGRFTISRDNAKNTVYLQMNSLKPEDTAVFYCAKDLYYGDYYYWGQGTQVTVSS: low polyreactivity

Now for a further sequence.
Req: Need polyreactivity (PSR sort gate) of QVQLEESGGGLVQAGGSLRLSCAASGRTSYGYAMGWYRQAPGKERELVAAISSGGRTNYADSVKGRFTISRDNAKNTVYLQMNSLKPEDTAVYYCAKRYRYRPSYDYWGQGTQVTVSS , thanks.
Resp: high polyreactivity

----------
Assay remarks: yeast display, Sf9 membrane polyspecificity reagent, FACS + sequencing; frameworks hold sequencing errors
Reported property: polyreactivity (PSR sort gate)

Examples with their reported polyreactivity (PSR sort gate) follow.
QVQLVESGGGLVQAGGSLRLSCAASGFIFGDYAMGWYRQAPGTERELVAAIFSGGSTYYADSVKGRFTISRDNAKNTVYLQMNSLKPEDTAVYYCAARFARYDWSMYYWGQGTQVTVSS: low polyreactivity
QVQLVESGGGLVQAGGSLRLSCAASGRTFSRYAMGWYRQAPWKERELVAAITSRGGNTYYADSVKGRFTISRDNAKNTVYLQMNSLIPEDTAVYYCNKVVRRGGGKNPDYDYWGQGTQVTVSS: high polyreactivity
QVQLVESGGGLVQAGGSLRLSCAASGSIFDGYAMGGSRQAPGNERELLAAISSGTSTNYADSVKGRFTISRDNAKNTVYLQMNSLKPEDTAVYYCNAYPPYLYATYDYWGQGTQVTVSS: low polyreactivity
QVQLVESGGGLVQAGGSLRLSCAASGRIFVVNAMGWYRQAPGKESELVAAITRRGGSTYADSVKGRFTISRDNAKNTLYIQMTSLKPEDTAVYYCNAESDFGIFRYKYDYWGQCTQVTVSS: high polyreactivity
QVQLVESRGGLLQAGGSLRLSCAASGIIFGHYDMGWYRQAPGKEWELVAAITFTGDSTYYADSVKGRFTISRDNAKHTVYLQMNSLKPEDTAVYYCAAETPVPWGSWGYDYWGQGTQVTVSS: low polyreactivity

Would you kindly look at the next entry?
Req: What does the data say about its polyreactivity (PSR sort gate)? Entry: QVQLVESGGGLVQAGGSLRLSCAASGFTFKYKAMGWYRQAPGKERELVAVISSSGGRTYYADSVKGRFTISRDNAKNTVYLQMNSLKPEDTAVYYCAADTFVWADWSWHYYWRQGTQVTVSS
Resp: high polyreactivity

----------
Assay remarks: yeast display, Sf9 membrane polyspecificity reagent, FACS + sequencing; frameworks hold sequencing errors
Reported property: polyreactivity (PSR sort gate)

QVQHVESGGRLVQAGGSLRLSCAASGSTLDVYAMGWYRQAPGKERELVAAISWSVGSTYYADSVKGRFKISRDNAKNTVYLQMNRLKPEDTAVYYCAAEPYEYAYFGYDYWGQGTQVTVSS: high polyreactivity
QVQLEESGGGLVQAGGSLRLSCAASGSTFDVYAMGWYRQAPGKERELVAAIRSSGGSTFYADSVKGRFTISRDNAKNIVYLQMNSLKPEDTAVYYCAARSFVVSGYNKYYEYGYWGQGTQVTVSS: low polyreactivity
QVQLVESGGGLFHAGGSLRLSFAASGSILYNAMGWYRQAPGKERELVAAIDSTSVDTYYADSVKGRFTISRDNAKNTVYLQMNSLKPEDTAVYYCSADYVYDDEGDFWGQGTQVTVSS: high polyreactivity
QVQLVESGGGLVQAGGSLRLSCAASGSIFYGNTMGWYRQAPGKDRELVASITRPGDRTYYADSVKGRFTISRDNAKNTVYLQMNSLKPEDTAVYSCNAGLVLPPPGASIVYFDQMDYWGQGTQLTVSS: low polyreactivity

----------
Assay remarks: yeast display, Sf9 membrane polyspecificity reagent, FACS + sequencing; frameworks hold sequencing errors
Reported property: polyreactivity (PSR sort gate)

QVQLVESGAGLVQAGGSLRLSWAPSGITFLYYAMGLYRQAPGTEMELVATISISGGSTYYADSVKGRFTISRDNAKYTVYLQMTSLQPEESAVYYCAADDSVVTYSYDTWLVDYDYWGQATQVTVSS: low polyreactivity
QVQLVESGGGLVQAGGSLRLSCAASGIIFSYYAMGWYRQAPGKERELVAAISSGGSTNYADSVKGRFTISRDNAKNTVYLQMNSLKPEDTAVYYCAPLYRDYDWIFEYWGQGTQVTVSS: low polyreactivity

----------
Assay remarks: yeast display, Sf9 membrane polyspecificity reagent, FACS + sequencing; frameworks hold sequencing errors
Reported property: polyreactivity (PSR sort gate)

Example results:
QVQLVESGGGLVQAGGSLRLICAASGFIMRPYTMGWYRQAPGKERELVAAITSGGRTYYADSVKGRFTISRDNAKNTVYLQMNSLKPEDTAVYYCAALTYYRTVRTFSYPYDYWGQGTQVTVSS: high polyreactivity
QVQLVESGGGLVQAGGSLRLSCAASGRTISINAMGWYRQAPGKERELVADISKSGGRTYYADSVKGRFTISRDNAKNTVYLQMNSLKPEDTAVYYCAKGAYYVPVIYHAVYSWGQGTQVTVSS: low polyreactivity
QVQLVESGGGLVQEGGSLRLSCAASGSTFYYYAMGWYRQAPGKERELVAAISSSGSTYYADSVKGRFTISRDNAKNTVYLQMISLNPEDTAVFYCNADSRTAGLNSEYDYWGQGTQVTVSS: low polyreactivity
QVQLVESGGGLVQAGGILRLSCAASGINFLYYAMGWYREAPGKEMELVAAINGSGGNTYYADSVKGRFTISLDNAKNTVYLQMNRLKPEDTAVYYCNADFFVYSYQQWDEYYDYWGQGTQVTVSS: low polyreactivity

Req: For the sequence shown here, QVQLVESGGGLVQAGGSLRLSCAASGRIFGRNAMGWYRQAPGKERELVAGISGRGGITYYADSVKGRFTISRDNAKNTVYLQMNSLKPEDTAVYYCAATGGDYYDFSYWGQGTQVTVSS , give the reported polyreactivity (PSR sort gate).
Resp: high polyreactivity

Value source: the nanobody polyreactivity screen of Harvey et al. (2022)
